Target: purified DHFR of strain Sp1/1 of Streptococcus pneumoniae (Streptococcus pneumoniae serotype 4)
Sequence (Q54801 1-168 I100L): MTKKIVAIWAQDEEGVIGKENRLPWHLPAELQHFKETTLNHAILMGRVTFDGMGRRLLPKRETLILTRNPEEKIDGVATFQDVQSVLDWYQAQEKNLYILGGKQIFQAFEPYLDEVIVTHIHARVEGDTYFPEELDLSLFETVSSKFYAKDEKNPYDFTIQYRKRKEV
Type: biochemical
Conditions: Table 2; IC50 against purified DHFR of strain Sp1/1
readoutKind: pIC50
Keep in mind that pIC50 stands for -log10 of concentration in molar terms.

What measured pIC50 goes with CCOc1cc(Cc2cnc(N)nc2N)cc(OCC2CCC2)c1-c1ccc2c(c1)OCO2 [Example 10-a] ?
7.47

Then this molecule: CCOc1cc(Cc2cnc(N)nc2N)cc(OS(=O)(=O)C2CC2)c1-c1ccc(CN2CCOCC2)s1 [Example 24-]
7.80

Then this molecule: CCOc1cc(Cc2cnc(N)nc2N)cc(OS(=O)(=O)c2ccc(OC)c(F)c2)c1-c1cccc(N)c1 [Example 14-e]
7.92

Then this molecule: CCOc1cc(Cc2cnc(N)nc2N)cc(OCC)c1-c1ccc(COCC(=O)N2CCSCC2)s1 [Example 03-b]
7.72

Then this molecule: CCOc1cc(Cc2cnc(N)nc2N)cc(OS(=O)(=O)C2CCC2)c1-c1cccc(N)c1 [Example 40-a]
8.19

Then this molecule: CCOc1cc(Cc2cnc(N)nc2N)cc(OCC)c1-c1ccc(CN2CCOCC2)cc1 [Example 02-w]
6.55

Then this molecule: CCOc1cc(Cc2cnc(N)nc2N)cc(OS(=O)(=O)C(C)CC)c1-c1ccc(N)c(F)c1 (centres unmarked) [Example 35-b]
8.05

Then this molecule: CCOc1cc(Cc2cnc(N)nc2N)cc(OS(C)(=O)=O)c1-c1ccc(CN2CCOCC2)c(F)c1 [Example 64-a]
7.28
